# TESTED SYSTEM: KRAS 4B G12C protein (Homo sapiens, UniProt P01116, G12C)
# Construct: This protein contained 188 amino acids in total, including an N-terminal 6-Histidine tag; made in house; host or cells: E. coli BL21
# ASSAY METHOD TEXT: In vitro covalent adduct formation (CAF) assay by LC-MS
# Type: binding
# CONDITION CONTEXT: 10 minutes; compound 10 μM, protein 5 μM, 22° C.; percentage of protein bound by the compound
Returns the class for an entry based on its CAF (10 minutes/60 minutes) at 10 micromolar: 10 minutes. Class ranges: bottom bin (below 9%), middle bin (9% to below 60%), top bin (60% or more)

In [3]: df
Out[3]:
                                    molecule  assigned_category
 0  C=CC(=O)N1CCN(c2nc(OC[C@@H]3CCCN3C)nc3c2CN(Cc2cc(Cl)ccc2F)C3)[C@@H](C)C1         bottom bin
 1  C=CC(=O)N1CCN(c2nc(SC)nc3c2CN(C2CCc4ccccc42)C3)C[C@@H]1CC#N (some centres unmarked)         middle bin
 2  C=CC(=O)N1CCN(c2nc(OC[C@@H]3CCCN3C)nc3c2CN(Cc2c(Cl)c(F)cc4[nH]ncc24)C3)C[C@@H]1CC#N            top bin
 3  C=CC(=O)N1CCN(c2nc(OC[C@@H]3CCCN3C)nc3c2CN(Cc2c(O)cccc2F)C3)[C@@H](C)C1         middle bin
 4  C=CC(=O)N1CCN(c2nc(OC[C@@H]3CCCN3C)nc3c2CN(Cc2c(CC)ccc(O)c2C)C3)C[C@@H]1CC#N            top bin
 5  C=CC(=O)N1CCN(c2nc(OC[C@@H]3CCCN3C)nc3c2CN(Cc2cc(Cl)ccc2F)C3)C[C@@H]1CC#N            top bin
 6  C=CC(=O)N1CCN(c2nc(OC[C@@H]3CCCN3C)nc3c2CN(Cc2c(Cl)cccc2OC)C3)C[C@@H]1C(O)C(F)(F)F (some centres unmarked)         bottom bin
 7  C=CC(=O)N1CCN(c2nc(OC[C@@H]3CCCN3C)nc3c2CN(C2CCc4ccccc42)C3)C[C@@H]1Cn1nccn1 (some centres unmarked)         bottom bin
 8  C=C(F)C(=O)N1CCN(c2nc(OC[C@@H]3CCCN3C)nc3c2CN(Cc2cc(O)c(C)cc2C)C3)C[C@@H]1CC#N         bottom bin
 9  C=CC(=O)N1CCN(c2nc(OC[C@@H]3CCCN3Cc3ccccc3)nc3c2CN(C2CCc4ccccc42)C3)C[C@@H]1CC#N (some centres unmarked)            top bin
10  C=CC(=O)N1CCN(c2nc(OC[C@@H]3CCCN3C)nc3c2CN(C(C)c2cc(O)ccc2C)C3)[C@@H](C)C1 (some centres unmarked)            top bin
11  C=CC(=O)N1CCN(c2nc(OC[C@@H]3CCCN3C)nc3c2CN(Cc2cc(C)ccc2C)C3)C[C@@H]1CC#N            top bin
12  C=CC(=O)N1CCN(c2nc(OC[C@@H]3CCCN3C)nc3c2CN(C(C)c2ccccc2Cl)C3)C[C@@H]1CC#N (some centres unmarked)         middle bin
13  C=CC(=O)N1CCN(c2nc(OCc3ccccn3)nc3c2CN(C2CCc4ccccc42)C3)C[C@@H]1CC#N (some centres unmarked)         middle bin
14  C=C(F)C(=O)N1CCN(c2nc(OC[C@@H]3CCCN3C)nc3c2CN(Cc2cc(O)ccc2Cl)C3)C[C@@H]1CC#N            top bin
15  C=CC(=O)N1CCN(c2nc(OCCN3CCOCC3)nc3c2CN(Cc2cc(O)ccc2C)C3)[C@@H](C)C1         bottom bin
16  C=CC(=O)N1CCN(c2nc(OCCOC)nc3c2CN(C2CCc4ccccc42)C3)C[C@@H]1CC#N (some centres unmarked)         middle bin
17  C=CC(=O)N1CCN(c2nc(OC[C@@H]3CCCN3C)nc3c2CN(Cc2ccccc2C(C)CC)C3)C[C@@H]1CC#N (some centres unmarked)         middle bin
18  C=CC(=O)N1CCN(c2nc(OC[C@@H]3CCCN3C)nc3c2CN(Cc2cccc4nc[nH]c24)C3)C[C@@H]1CC#N            top bin
19  C=CC(=O)N1CCN(c2nc(OC[C@@H]3CCCN3C)nc3c2CN(Cc2nc(OC)ccc2Cl)C3)[C@@H](C)C1         bottom bin
20  C=CC(=O)N1C[C@H](C)N(c2nc(OC[C@@H]3CCCN3C)nc3c2CN(Cc2c(C)ccc(O)c2C)C3)C[C@H]1C         middle bin
21  C=CC(=O)N1CCN(c2nc(OC[C@@H]3CCCN3C)nc3c2CN(Cc2c(C)cccc2C)C3)C[C@@H]1CC#N            top bin
22  C=C(F)C(=O)N1CCN(c2nc(OC[C@@H]3CCCN3C)nc3c2CN(C2CCc4ccccc42)C3)C[C@@H]1CC#N (some centres unmarked) [1-139]         bottom bin
23  C=CC(=O)N1CCN(c2nc(OC[C@@H]3CCCN3C)nc3c2CN(Cc2c(Cl)ccc(O)c2Cl)C3)C[C@@H]1CC#N            top bin
